What GI50 was measured for each of the following?
System: LOX IMVI
Assay: NCI tumour cell line growth inhibition, 48 h
The source made the active and inactive calls. Cut-off read from the data, not from the text of the source: active = GI50 up to about 1.1 µM and inactive = higher.

Dear colleague, I am looking for the recorded GI50 of the following compound: `O=c1cccccc1NCCNc1cccccc1=O`
> 100 µM (inactive)

Param item: `CCOC(=O)/C=C(/C(=O)OCC)n1ccc(=O)n(Cc2cnnn2CCCCOC(C)=O)c1=O`
> 100 µM (inactive)

Param item: `Cn1nc(-c2ccccc2)c(C(=O)/C=C/c2ccccc2)c(N2CCCCC2)c1=O`
11.7 µM (inactive)

Param item: `COc1cc(/C=C\c2ccccn2)cc(OC)c1OC`
64 µM (inactive)

Param item: `Cc1cc2nc3[nH]nc(N)c3nc2cc1C`
> 100 µM (inactive)

Param item: `CC1=C(C#N)C(=O)N(/N=C/c2ccc(Cl)cc2)C(=O)/C1=c1\o/c(=C2/C(=O)N(/N=C/c3ccc(Cl)cc3)C(=O)C(C#N)=C2C)c2nccnc12`
> 100 µM (inactive)

Param item: `COc1ccc(NC(=O)CCc2cc(C(C)(C)C)[nH]n2)cc1`
> 100 µM (inactive)

----------
What GI50 was measured for each of the following?
Tested on: SR
Assay: NCI tumour cell line growth inhibition, 48 h
Active and inactive are the calls of the source. No stated cut-off is given here; in the data, active = GI50 up to about 1.1 µM and inactive = higher.

Dear colleague, I am looking for the recorded GI50 of the following molecule: `C=C1C(=O)C2=C[C@H]1C[C@H](O)C(=O)[C@]1(C)CCCC(C)(C)[C@H]1C[C@H]2O`
0.358 µM (active)

Param item: `COc1ccccc1NC(=O)C(=O)Cc1cnc2ccccc2n1`
> 100 µM (inactive)

Param item: `COc1ccccc1Cn1c2c(c3c(C(=O)NCCN(C)C)c(O)ccc31)C(=O)c1ccccc1C2=O`
0.291 µM (active)

Param item: `O=C(NC/C(Cl)=C/Cl)Nc1cccc2c1CCCC2`
35.9 µM (inactive)

Param item: COc1ccc2c(c1)CC1C3(CCCCC23)CC[N+]1(C)C (configuration not stated)
> 100 µM (inactive)

Param item: `CCN(CC)CCN(C(=O)c1ccc(F)cc1)c1ccccc1N`
> 10 µM (inactive)

Param item: `N#CC(C#N)=C1C(=Cc2ccc(OCCCCCCCCCCSSCCCCCCCCCCOc3ccc(C=C4C(=C(C#N)C#N)c5ccccc5C4=C(C#N)C#N)cc3)cc2)C(=C(C#N)C#N)c2ccccc21`
19.2 µM (inactive)

Param item: `CCCCCCCCCCCCC(CCCCCCCCCCCC)OP(=O)(O)O`
> 100 µM (inactive)

Param item: CC12CCC(CC(=O)/C1=C(/Br)I)C2(C)C (configuration not stated)
15.8 µM (inactive)

Param item: `CC1=NN2C(=O)CC(=O)N=C2S1`
> 100 µM (inactive)

Param item: `O=C1NC2(CCN(CCc3ccccc3)CC2)Oc2ccccc21`
52.7 µM (inactive)

Param item: NC(=S)N1N=C(c2ccc3c(c2)CCC3)CC1c1ccccc1 (configuration not stated)
25.3 µM (inactive)

----------
System: HCC 2998
Test: NCI tumour cell line growth inhibition, 48 h
Active and inactive are the calls of the source. No stated cut-off is given here; in the data, active = GI50 up to about 1.1 µM and inactive = higher.
// classify into yes (1) for active, no (0) for inactive

What call does the record list for `C1CCCCC2(CCCCCCCCC3(CCC1)SCCS3)SCCS2` ?
no (0)

Param item: COC(=O)C(C(=O)C(=O)Nc1nnc(S)[nH]1)c1csc(N)n1 (stereo unspecified)
no (0)

Param item: `Oc1cc(C2OCCCO2)cc(O)c1O`
no (0)

Param item: `CCN(CC)CCn1nc(N)c2nc3ccccc3nc21`
no (0)

Param item: `CCN(CC)Cc1ccc2cccnc2c1O`
no (0)

Param item: CCNC1C2(CCCCC2)NC(=O)C12CCCCC2 (stereo unspecified)
no (0)

Param item: `COc1ccc2nc(N/N=C/c3sccc3C)cc(C)c2c1`
no (0)

Param item: `Cc1cc(-c2nc3ccc(F)cc3s2)ccc1NC(=O)[C@H](C)N`
yes (1)

Param item: COc1ccc(C(SC2C(O)C(CO)OC2n2ccc(N)nc2=O)(c2ccccc2)c2ccc(OC)cc2)cc1 (stereo unspecified)
no (0)

Param item: `C=CCn1c(N)c(C#N)c(C#N)c1CCC`
no (0)

Param item: CC1C2CC(CC2(C)O)C1(C)C (stereo unspecified)
no (0)

Param item: `O=C1c2ccccc2CN1c1ccc(OCCN2CCCCC2)cc1`
no (0)

Param item: C#Cc1nc(N)c2ncn(C3OC(COS(N)(=O)=O)C(O)C3O)c2n1 (stereo unspecified)
yes (1)

Param item: `CC(C)=CCc1c(OC(=O)c2c(C)cc(O)cc2O)cc(CO)c(CO)c1O`
no (0)

Param item: `CNc1cccc(-c2cc(O)c3cc4c(cc3n2)OCO4)c1`
yes (1)

Param item: CCC(C)(O)c1cn(-c2cccc(S(=O)(=O)O)c2)nn1 (stereo unspecified)
no (0)
